subject of test: DNA dC->dU-editing enzyme APOBEC-3G (Homo sapiens, UniProt Q9HC16)
Sequence (Q9HC16 whole entry): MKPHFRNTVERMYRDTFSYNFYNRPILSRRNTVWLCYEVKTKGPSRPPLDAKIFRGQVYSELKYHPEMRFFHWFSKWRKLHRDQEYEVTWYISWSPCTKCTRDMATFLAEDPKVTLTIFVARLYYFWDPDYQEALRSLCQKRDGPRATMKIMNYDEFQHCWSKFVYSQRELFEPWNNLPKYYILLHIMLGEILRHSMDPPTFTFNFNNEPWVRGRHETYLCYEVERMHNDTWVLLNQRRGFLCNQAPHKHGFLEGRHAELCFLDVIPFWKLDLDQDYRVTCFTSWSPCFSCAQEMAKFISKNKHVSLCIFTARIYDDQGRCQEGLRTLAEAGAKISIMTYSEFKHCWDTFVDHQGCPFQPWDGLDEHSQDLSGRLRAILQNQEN
assay explanation: Dose Response confirmation of small molecule APOBEC3G DNA Deaminase Inhibitors via a fluorescence-based single-stranded DNA deaminase assay. [Related pubchem assays (depositor defined):AID493012, AID493028]
Format: functional
Active and inactive are the calls of the source.
readout name: IC50

IC50 lookup needed for CCCC(C)c1nnc(NC(=O)CCS(=O)(=O)c2ccccc2)s1 (centres undefined) , thanks. 32.2 µM (active)

Can you look up the measured IC50 of `O=c1c2ccccc2sn1-c1ccc(S(=O)(=O)N2CCCCC2)cc1` for me? 19.4 µM (active)

Sample `COc1ccc(OC)c2c1C(=O)C(Cl)=C(Cl)C2=O` — what was its IC50? 7.17 µM (active)

# get_value(readout='IC50', item= `Cn1c(S)nnc1-c1ccc(C(C)(C)C)cc1` ) 4.79 µM (active)

* * *

subject of test: UniProt:P38532
Sequence (P38532 whole entry): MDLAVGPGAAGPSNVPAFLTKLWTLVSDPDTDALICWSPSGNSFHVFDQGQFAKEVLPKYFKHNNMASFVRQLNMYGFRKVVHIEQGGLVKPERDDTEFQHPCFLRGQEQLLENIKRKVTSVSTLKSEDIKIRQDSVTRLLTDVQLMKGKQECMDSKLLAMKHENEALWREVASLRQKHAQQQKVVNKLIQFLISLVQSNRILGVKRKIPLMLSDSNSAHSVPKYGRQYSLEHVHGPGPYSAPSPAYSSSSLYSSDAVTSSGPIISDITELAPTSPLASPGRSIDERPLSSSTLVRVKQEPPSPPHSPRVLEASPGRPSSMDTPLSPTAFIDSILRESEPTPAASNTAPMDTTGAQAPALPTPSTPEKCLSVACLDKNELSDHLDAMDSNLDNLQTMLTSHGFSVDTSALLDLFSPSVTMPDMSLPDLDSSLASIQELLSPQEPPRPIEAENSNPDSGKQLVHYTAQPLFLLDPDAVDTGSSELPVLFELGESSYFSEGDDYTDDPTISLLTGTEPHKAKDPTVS
assay explanation: enhancement of HSF1-driven luciferase signal – cell-based, NIH3T3, luminescence, dose retest, confirmation (AID 435004);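 further: stress induced by proteasome inhibitor MG132 added 30 min after compound; luciferase reporter driven by HSF1 response element in NIH3T3 cells; actives raise luminescence as potentiators of the MG132 stress response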
Type: functional
Active and inactive are the calls of the source.
readout name: EC50

Would you mind telling me what EC50 value was observed for `Cc1cccc(/C=N\NC(=O)c2ccc(Cl)cc2)c1O` ? 91 µM (active)

Reported EC50, molecule `Cn1c(CNc2cccc(Cl)c2)nnc1SCC#N` : ____ > 260 µM (inactive)

Reported EC50 for Cc1ccc(NC2c3ncccc3C(=O)N2C2CCCCC2)cc1 (stereo not drawn) : what is it? > 260 µM (inactive)

* * *

subject of test: Exodeoxyribonuclease V (Escherichia coli (strain K12), UniProt P04993+P07648+P08394)
Sequence (P04993 whole entry): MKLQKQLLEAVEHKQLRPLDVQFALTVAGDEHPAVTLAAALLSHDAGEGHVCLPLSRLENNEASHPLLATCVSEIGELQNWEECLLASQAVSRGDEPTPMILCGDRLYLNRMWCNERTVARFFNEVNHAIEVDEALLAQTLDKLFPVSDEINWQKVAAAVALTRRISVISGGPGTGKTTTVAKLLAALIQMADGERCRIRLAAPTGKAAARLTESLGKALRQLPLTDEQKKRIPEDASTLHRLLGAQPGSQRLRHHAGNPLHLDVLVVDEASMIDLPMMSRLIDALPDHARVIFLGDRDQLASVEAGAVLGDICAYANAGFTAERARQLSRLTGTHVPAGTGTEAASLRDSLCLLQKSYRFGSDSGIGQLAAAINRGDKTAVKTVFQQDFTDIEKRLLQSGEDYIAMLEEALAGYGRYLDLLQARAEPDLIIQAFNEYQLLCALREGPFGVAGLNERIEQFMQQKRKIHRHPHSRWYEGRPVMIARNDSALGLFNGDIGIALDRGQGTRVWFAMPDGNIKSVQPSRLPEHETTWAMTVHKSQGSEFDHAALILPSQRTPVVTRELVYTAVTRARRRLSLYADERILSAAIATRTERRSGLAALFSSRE
Sequence (P07648 whole entry): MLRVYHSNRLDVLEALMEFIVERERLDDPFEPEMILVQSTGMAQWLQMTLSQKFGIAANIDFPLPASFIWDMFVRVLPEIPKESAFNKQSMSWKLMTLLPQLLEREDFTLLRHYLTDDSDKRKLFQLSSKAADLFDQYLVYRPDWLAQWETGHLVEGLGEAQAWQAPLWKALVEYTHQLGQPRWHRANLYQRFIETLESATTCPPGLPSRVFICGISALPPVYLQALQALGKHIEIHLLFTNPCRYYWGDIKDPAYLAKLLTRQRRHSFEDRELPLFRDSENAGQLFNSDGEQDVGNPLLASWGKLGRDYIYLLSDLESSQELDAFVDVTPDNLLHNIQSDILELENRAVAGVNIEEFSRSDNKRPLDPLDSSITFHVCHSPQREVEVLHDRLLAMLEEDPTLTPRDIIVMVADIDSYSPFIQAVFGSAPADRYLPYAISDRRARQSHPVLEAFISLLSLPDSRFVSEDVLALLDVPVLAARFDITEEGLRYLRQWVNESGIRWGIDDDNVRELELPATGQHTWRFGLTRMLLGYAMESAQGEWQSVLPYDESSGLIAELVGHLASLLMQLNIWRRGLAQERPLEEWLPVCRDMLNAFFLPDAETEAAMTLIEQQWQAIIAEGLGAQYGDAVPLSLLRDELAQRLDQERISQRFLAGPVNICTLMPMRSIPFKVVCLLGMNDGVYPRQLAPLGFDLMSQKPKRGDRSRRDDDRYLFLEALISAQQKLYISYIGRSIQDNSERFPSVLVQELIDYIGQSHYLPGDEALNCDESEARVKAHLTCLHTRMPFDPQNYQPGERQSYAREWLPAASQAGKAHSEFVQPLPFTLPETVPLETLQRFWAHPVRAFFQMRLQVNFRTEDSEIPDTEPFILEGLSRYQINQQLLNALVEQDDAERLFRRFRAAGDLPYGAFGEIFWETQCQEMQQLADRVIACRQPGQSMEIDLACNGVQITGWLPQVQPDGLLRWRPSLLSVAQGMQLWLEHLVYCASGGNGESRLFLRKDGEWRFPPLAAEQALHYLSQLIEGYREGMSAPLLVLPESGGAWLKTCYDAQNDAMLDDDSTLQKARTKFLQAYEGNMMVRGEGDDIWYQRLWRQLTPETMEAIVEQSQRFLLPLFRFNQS
Sequence (P08394 whole entry): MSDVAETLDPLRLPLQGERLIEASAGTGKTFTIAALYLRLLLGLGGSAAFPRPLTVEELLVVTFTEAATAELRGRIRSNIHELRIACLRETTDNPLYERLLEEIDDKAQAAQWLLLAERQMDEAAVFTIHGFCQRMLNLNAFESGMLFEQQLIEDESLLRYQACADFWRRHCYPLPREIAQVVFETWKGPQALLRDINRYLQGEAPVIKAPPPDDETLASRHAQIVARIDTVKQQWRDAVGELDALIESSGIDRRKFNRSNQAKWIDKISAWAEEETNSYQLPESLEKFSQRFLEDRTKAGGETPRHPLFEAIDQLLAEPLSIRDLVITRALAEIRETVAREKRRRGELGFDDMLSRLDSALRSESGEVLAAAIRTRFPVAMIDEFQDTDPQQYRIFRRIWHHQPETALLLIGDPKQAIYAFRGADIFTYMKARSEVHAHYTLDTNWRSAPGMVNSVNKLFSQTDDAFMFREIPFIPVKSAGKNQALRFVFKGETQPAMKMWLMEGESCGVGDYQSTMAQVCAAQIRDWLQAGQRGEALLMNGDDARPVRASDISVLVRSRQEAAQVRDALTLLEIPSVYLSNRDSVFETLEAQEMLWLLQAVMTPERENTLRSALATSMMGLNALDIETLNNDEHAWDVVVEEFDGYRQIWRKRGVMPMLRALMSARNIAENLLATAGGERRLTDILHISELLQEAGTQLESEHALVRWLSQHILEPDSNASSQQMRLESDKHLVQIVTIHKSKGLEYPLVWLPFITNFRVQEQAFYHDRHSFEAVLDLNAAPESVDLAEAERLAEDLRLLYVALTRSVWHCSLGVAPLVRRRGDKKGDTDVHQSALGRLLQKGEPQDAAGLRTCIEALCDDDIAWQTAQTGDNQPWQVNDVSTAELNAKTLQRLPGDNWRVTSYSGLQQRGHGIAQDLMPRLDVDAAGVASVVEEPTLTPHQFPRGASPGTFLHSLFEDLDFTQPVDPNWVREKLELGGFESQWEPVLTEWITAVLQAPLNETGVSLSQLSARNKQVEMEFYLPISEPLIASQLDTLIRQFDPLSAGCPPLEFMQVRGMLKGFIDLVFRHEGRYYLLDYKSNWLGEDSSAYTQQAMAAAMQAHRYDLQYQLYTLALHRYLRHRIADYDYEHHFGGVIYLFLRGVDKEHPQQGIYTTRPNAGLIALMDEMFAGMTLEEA
assay explanation: RecBCD inhibition via phage-restricted bacterial growth – absorbance, V66 E. coli, mutant T4 phage, counter-screen for AddAB inhibitor project, dose response (AID 492957)
Assay type: functional, cell-based, Escherichia coli str. K-12 substr. MG1655
Active and inactive are the calls of the source.
readout name: IC50

Which IC50 is reported with Exodeoxyribonuclease V (Escherichia coli (strain K12), UniProt P04993+P07648+P08394) for this entry: `NC(=S)N/N=C/c1ncc(C(F)(F)F)cc1Cl` ? > 119 µM (inactive)

Give IC50 (Exodeoxyribonuclease V (Escherichia coli (strain K12), UniProt P04993+P07648+P08394)) of the following molecule: `CSc1nc(N)nc2c1ncn2CC(=O)Nc1ccc(C)c(C)c1` > 118 µM (inactive)

Record lookup: for Exodeoxyribonuclease V (Escherichia coli (strain K12), UniProt P04993+P07648+P08394), what IC50 belongs to CCCC(=O)NC(c1ccc2c(c1)OCO2)c1cc(Cl)c2cccnc2c1O (stereo not given) ? > 119 µM (inactive)

Request: IC50, test system Exodeoxyribonuclease V (Escherichia coli (strain K12), UniProt P04993+P07648+P08394), entry CCCCC(=O)NC(c1ccc(N(CC)CC)cc1)c1ccc2cccnc2c1O (stereo not given) > 119 µM (inactive)

API: value(readout= IC50, system= Exodeoxyribonuclease V (Escherichia coli (strain K12), UniProt P04993+P07648+P08394), query= `Cc1c(Cl)cccc1N=C(S)NCc1ccccc1Cl` ) > 119 µM (inactive)

* * *

assay explanation: viability of uninfected HEp-2 cells – cell-based, HTS, cytotoxicity control for RSV inhibitor project, dose response (AID 2410)
Format: functional
run parameters: human respiratory syncytial virus
Activity calls are given as the source filed them.
readout name: CC50

Quick one: CC50 for `COc1cc(N=Nc2ccc3ccccc3c2)ccc1O` ? 23.3 µM (active)

Which CC50 is reported for this compound? `COc1cc(OC)c(C(=O)Nc2ccccc2-c2ccccc2)cc1OC` 18.9 µM (active)

Suppose we examine the compound `CCN(CC(=O)Nc1cc(Cl)ccc1C)C(=O)CSCc1ccc(C)cc1` ; what CC50 value has been reported? 24.5 µM (active)

For the compound COc1c(CC=C(C)C)c(O)cc2oc(=O)c3c4ccc(O)cc4oc3c12 [GLYCYROL] , what CC50 is on record? 26.5 µM (active)

Attribution: ChEMBL document CHEMBL1201862
